- Test system: PI(4,5)P2 liposomes
- experimentNotes: Yeast proteome chip probed with PI(4,5)P2 liposomes
- conditionLabel: liposome binding signal on yeast proteome chip, Cy3-streptavidin detection
propertyLabel: PI(4, 5)P2
// return just the number, without any unit appended

Prompt: If you can, please state the reported PI(4, 5)P2 value of FRM2: yeast GST-HisX6 fusion protein on proteome chip (protein, UniProt P37261 1-193, looked up, GST-His6 fusion tag, yeast GST-HisX6 fusion protein on proteome chip) nitroreductase FRM2: MSPTGNYLNAITNRRTIYNLKPELPQGVGLDDVKRTVHVILKNTPTAFNSQVNRAVIIVGDTHKRIWDAVASAMPTAEAKKRPESCRDEAYGSVIFFTDEGPTEKLQRDFPALAAAFPTCAAHTTGAVQIQSWTALELLGLGANLQHYNDYVKSALPQDVPIAWTVQSQLVFGVPTALPEEKTFINNVINVYH .
Completion: 75.34

Please find the next molecule below.
Prompt: Returns the measured PI(4, 5)P2 for the input molecule. Input: TFB3: yeast GST-HisX6 fusion protein on proteome chip (protein, UniProt Q03290 1-321, looked up, GST-His6 tag, yeast GST-HisX6 fusion protein on proteome chip) RNA polymerase II …: MLMDEYEENKDMCPICKTDRYLSPDVKFLVNPECYHRICESCVDRIFSLGPAQCPYKGCDKILRKNKFKTQIFDDVEVEKEVDIRKRVFNVFNKTIDDFNGDLVEYNKYLEEVEDIIYKLDHGIDVAKTEEKLRTYEELNKQLIMNNLERSRTEIESFEQRQKFEKEMKLKKRLLERQIEEEERMNKEWTKKEIVNRLSTTTQDINETIEGVKNTVKLKKSSARRKLEELNRVLKNNPYFNSNVNVQNSRLKDAVPFTPFNGDREAHPRFTLKGSVYNDPFIKDLEHRKEFIASGFNTNYAYERVLTEAFMGLGCVISEEL
Completion: 37.23
